Each recorded value in this set is attributed to ChEMBL document CHEMBL5034035.

- Test description: AUC (0 to 24 hrs) in Cynomolgus monkey plasma at 150 mg/kg/day
- Assay type: ADME, organism-based, Macaca fascicularis
- Design: time < 24 hr, dose 150 mg/kg/day
Assay endpoint: AUC at 24 h (µg·h/mL)
Return type: number; implicit unit µg·h/mL.

Task: So what's the measured AUC at 24 h for this one? CCCN(C)C(=O)OCc1c(-c2ccc(O[C@H]3CCC[C@H](C(=O)O)C3)c(C)n2)nnn1C [ADMILPARANT]
Output: 1140

* * *

- Target desc: Cytochrome P450 2D6 (Homo sapiens, UniProt P10635)
- Sequence (P10635 whole entry): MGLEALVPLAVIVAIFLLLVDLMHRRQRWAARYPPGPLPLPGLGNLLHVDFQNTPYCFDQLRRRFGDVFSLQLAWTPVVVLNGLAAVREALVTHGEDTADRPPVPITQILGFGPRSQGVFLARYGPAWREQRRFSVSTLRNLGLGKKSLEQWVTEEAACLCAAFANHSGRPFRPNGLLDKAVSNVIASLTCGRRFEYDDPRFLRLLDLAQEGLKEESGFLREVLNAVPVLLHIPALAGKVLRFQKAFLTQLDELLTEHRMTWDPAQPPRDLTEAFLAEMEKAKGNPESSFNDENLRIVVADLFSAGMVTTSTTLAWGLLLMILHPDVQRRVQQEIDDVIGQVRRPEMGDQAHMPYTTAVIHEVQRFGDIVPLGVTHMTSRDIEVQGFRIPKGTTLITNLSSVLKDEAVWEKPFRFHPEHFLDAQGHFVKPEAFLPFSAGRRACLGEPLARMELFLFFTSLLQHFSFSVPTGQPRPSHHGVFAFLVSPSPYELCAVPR
Assay endpoint: IC50

Task: Hello, I am looking for reported IC50 with Cytochrome P450 2D6 (Homo sapiens, UniProt P10635) for "Cc1noc(-c2ccc(-c3ccc(C4(C(=O)O)CC4)cc3)cc2)c1NC(=O)O[C@H](C)c1ccccc1" . Could you help?
Output: > 50 µM

* * *

- Target desc: UniProt:Q12809
- Sequence (Q12809 whole entry): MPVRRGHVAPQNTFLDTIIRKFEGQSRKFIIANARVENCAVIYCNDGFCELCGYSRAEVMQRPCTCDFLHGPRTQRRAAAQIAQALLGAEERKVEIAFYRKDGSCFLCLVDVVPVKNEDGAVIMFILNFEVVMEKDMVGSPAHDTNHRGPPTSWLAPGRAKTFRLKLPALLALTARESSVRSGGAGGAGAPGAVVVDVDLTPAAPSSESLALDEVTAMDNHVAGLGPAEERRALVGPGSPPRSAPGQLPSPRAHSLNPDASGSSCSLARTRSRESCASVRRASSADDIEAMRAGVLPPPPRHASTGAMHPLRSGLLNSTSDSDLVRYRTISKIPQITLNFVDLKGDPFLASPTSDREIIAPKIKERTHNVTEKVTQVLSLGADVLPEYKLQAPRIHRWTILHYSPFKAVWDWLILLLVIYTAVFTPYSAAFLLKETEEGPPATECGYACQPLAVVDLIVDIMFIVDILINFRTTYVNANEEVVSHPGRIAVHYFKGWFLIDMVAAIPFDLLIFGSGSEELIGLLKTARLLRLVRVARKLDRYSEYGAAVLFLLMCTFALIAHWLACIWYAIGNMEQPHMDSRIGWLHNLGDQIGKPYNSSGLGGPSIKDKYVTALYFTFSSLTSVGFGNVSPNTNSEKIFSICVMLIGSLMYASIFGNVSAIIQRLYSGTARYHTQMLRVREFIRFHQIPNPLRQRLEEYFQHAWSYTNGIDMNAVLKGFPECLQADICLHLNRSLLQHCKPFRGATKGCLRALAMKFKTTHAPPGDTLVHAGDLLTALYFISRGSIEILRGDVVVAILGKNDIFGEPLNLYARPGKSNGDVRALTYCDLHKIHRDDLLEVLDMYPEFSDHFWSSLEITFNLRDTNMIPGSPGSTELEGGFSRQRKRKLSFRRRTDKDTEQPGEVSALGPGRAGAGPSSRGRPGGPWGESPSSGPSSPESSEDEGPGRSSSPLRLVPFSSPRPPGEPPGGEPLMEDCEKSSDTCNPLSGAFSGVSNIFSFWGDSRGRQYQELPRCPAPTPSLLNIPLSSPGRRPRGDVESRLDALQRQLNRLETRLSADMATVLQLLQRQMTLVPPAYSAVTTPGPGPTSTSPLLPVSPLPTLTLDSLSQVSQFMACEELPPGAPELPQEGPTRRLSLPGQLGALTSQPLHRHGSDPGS
- Test description: Inhibition of hERG at 10 uM by electrophysiological assay relative to control
Assay endpoint: inhibition at 10 µM (%)
Return type: number; implicit unit %.

Task: So what's the measured inhibition at 10 µM for this one? "Cc1nc(-c2nnn(C)c2COC(=O)N(C)CC2CCC2)ccc1O[C@H]1CCC[C@H](C(=O)O)C1"
Output: 6

* * *

Hi! I'm sharing some IC50 results obtained with Bile salt export pump (Homo sapiens, UniProt O95342).
Sequence (O95342 whole entry): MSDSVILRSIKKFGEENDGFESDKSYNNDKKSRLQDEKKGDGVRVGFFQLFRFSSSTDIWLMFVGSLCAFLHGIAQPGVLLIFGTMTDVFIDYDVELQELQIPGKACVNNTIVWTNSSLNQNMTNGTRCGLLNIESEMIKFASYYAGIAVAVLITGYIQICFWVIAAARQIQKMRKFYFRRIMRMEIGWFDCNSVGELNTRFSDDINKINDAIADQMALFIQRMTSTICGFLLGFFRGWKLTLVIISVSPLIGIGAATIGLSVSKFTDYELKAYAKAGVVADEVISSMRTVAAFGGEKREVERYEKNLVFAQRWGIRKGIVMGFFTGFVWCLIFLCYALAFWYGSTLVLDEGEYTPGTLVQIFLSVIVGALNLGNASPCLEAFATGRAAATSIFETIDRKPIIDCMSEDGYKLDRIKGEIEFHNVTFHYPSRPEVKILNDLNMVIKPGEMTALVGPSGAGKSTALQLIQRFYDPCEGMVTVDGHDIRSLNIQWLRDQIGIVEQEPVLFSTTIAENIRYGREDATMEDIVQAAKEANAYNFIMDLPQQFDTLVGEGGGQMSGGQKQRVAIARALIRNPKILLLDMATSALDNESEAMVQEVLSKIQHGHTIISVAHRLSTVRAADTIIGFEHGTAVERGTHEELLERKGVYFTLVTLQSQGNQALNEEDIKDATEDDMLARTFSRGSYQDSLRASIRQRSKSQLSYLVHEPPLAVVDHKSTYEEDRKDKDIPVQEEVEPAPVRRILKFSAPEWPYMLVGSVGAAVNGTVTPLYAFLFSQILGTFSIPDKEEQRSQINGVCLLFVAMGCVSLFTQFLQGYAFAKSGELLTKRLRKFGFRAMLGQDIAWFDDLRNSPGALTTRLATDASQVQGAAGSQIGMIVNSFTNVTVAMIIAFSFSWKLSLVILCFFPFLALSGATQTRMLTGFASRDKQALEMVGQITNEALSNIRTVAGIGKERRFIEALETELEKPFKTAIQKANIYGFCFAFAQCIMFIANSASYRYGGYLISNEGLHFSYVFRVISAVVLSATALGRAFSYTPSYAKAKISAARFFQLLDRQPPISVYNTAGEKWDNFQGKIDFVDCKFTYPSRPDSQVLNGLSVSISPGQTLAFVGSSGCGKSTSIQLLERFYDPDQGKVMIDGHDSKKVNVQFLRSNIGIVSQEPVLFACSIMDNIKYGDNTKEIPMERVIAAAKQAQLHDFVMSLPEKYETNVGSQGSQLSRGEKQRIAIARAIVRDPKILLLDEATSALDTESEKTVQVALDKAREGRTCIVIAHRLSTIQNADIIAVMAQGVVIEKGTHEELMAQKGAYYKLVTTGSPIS
Return type: number; implicit unit µM.

1. CN(C(=O)OCc1c(-c2ccc(O[C@H]3CCC[C@H](C(=O)O)C3)cn2)nnn1C)C1CCCC1 = 46.3
2. Cc1noc(-c2ccc(-c3ccc(C4(C(=O)O)CC4)cc3)cc2)c1NC(=O)O[C@H](C)c1ccccc1 [BMS-986020] = 4.8

Okay, next one:
Task: Hello, I am looking for reported IC50 with Bile salt export pump (Homo sapiens, UniProt O95342) for "Cc1nc(-c2nnn(C)c2COC(=O)N(C)CC2CCC2)ccc1O[C@H]1CCC[C@H](C(=O)O)C1" . Could you help?
Output: 19.6

* * *

- Test description: Plasma clearance in Sprague-Dawley rat at 3 mg/kg, po or 1 mg/kg, iv measured up to 24 hrs by LC-MS/MS analysis
- Format: ADME, organism-based
Assay endpoint: clearance (mL/min/kg)
Return type: number; implicit unit mL/min/kg.

1. Cc1nc(-c2nnn(C)c2COC(=O)N(C)CC2CCC2)ccc1O[C@H]1CCC[C@H](C(=O)O)C1 = 104

Okay, next one:
Task: So what's the measured clearance for this one? "CCCN(C)C(=O)OCc1c(-c2ccc(O[C@H]3CCC[C@H](C(=O)O)C3)c(C)n2)nnn1C"
Output: 15

* * *

- Test description: Protein binding in human plasma assessed as free fraction at 3 mg/kg, po or 1 mg/kg, iv measured up to 24 hrs by LC-MS/MS analysis
- Type: ADME, organism-based
Listing of entries alongside the reported fraction unbound at 24 h.
The answer should be written as a number, with no unit following it.

Solved entries (count: 3):
1) Cc1nc(-c2nnn(C)c2COC(=O)N(C)CC2CCC2)ccc1O[C@H]1CCC[C@H](C(=O)O)C1 = 0.033
2) CN(C(=O)OCc1c(-c2ccc(O[C@H]3CCC[C@H](C(=O)O)C3)cn2)nnn1C)C1CCCC1 = 0.025
3) CCCN(C)C(=O)OCc1c(-c2ccc(O[C@H]3CCC[C@H](C(=O)O)C3)c(C)n2)nnn1C = 0.056

Okay, next one:
Task: So what's the measured fraction unbound at 24 h for this one? "Cc1noc(-c2ccc(-c3ccc(C4(C(=O)O)CC4)cc3)cc2)c1NC(=O)O[C@H](C)c1ccccc1"
Output: 0.002

* * *

- Test description: Protein binding in CD-1 mouse plasma assessed as free fraction at 3 mg/kg, po or 1 mg/kg, iv measured up to 24 hrs by LC-MS/MS analysis
- Type: ADME, organism-based
Listing of entries alongside the reported fraction unbound at 24 h.
The answer should be written as a number, with no unit following it.

1. CCCN(C)C(=O)OCc1c(-c2ccc(O[C@H]3CCC[C@H](C(=O)O)C3)c(C)n2)nnn1C = 0.314
2. CN(C(=O)OCc1c(-c2ccc(O[C@H]3CCC[C@H](C(=O)O)C3)cn2)nnn1C)C1CCCC1 = 0.083
3. Cc1nc(-c2nnn(C)c2COC(=O)N(C)CC2CCC2)ccc1O[C@H]1CCC[C@H](C(=O)O)C1 = 0.1

Task: So what's the measured fraction unbound at 24 h for this one? "Cc1noc(-c2ccc(-c3ccc(C4(C(=O)O)CC4)cc3)cc2)c1NC(=O)O[C@H](C)c1ccccc1"
Output: 0.006

* * *

- Test description: Aqueous solubility of compound at pH 1
- Type: physicochemical
Listing of entries alongside the reported solubility.
Return type: number; implicit unit µg/mL.

1) CCCN(C)C(=O)OCc1c(-c2ccc(O[C@H]3CCC[C@H](C(=O)O)C3)c(C)n2)nnn1C = 2990

Okay, next one:
Task: So what's the measured solubility for this one? "Cc1nc(-c2nnn(C)c2COC(=O)N(C)CC2CCC2)ccc1O[C@H]1CCC[C@H](C(=O)O)C1"
Output: 389

* * *

- Test description: Volume of distribution at steady state in CD-1 mouse at 3 mg/kg, po or 1 mg/kg, iv measured up to 24 hrs by LC-MS/MS analysis
- Format: ADME, organism-based
- Protocol conditions: in vivo, read-out: Vdss
Assay endpoint: Vd

1. CCCN(C)C(=O)OCc1c(-c2ccc(O[C@H]3CCC[C@H](C(=O)O)C3)c(C)n2)nnn1C [ADMILPARANT] = 5.5 L/kg

Okay, next one:
Task: So what's the measured Vd for this one? "Cc1nc(-c2nnn(C)c2COC(=O)N(C)CC2CCC2)ccc1O[C@H]1CCC[C@H](C(=O)O)C1"
Output: 14.6 L/kg

* * *

- Test description: Oral bioavailability in CD-1 mouse at 3 mg/kg measured up to 24 hrs by LC-MS/MS analysis
- Format: ADME, organism-based
- Protocol conditions: in vivo
Assay endpoint: bioavailability (%)
Return type: number; implicit unit %.

Task: So what's the measured bioavailability for this one? "CCCN(C)C(=O)OCc1c(-c2ccc(O[C@H]3CCC[C@H](C(=O)O)C3)c(C)n2)nnn1C"
Output: 70

Task: So what's the measured bioavailability for this one? "Cc1nc(-c2nnn(C)c2COC(=O)N(C)CC2CCC2)ccc1O[C@H]1CCC[C@H](C(=O)O)C1"
Output: 91

* * *

- Test description: AUC (0 to 24 hrs) in Cynomolgus monkey plasma at 500 mg/kg, po administered for 4 weeks
- Type: ADME, organism-based, Macaca fascicularis
- Parameters: route oral, time 4 weeks, dose 500 mg/kg
Assay endpoint: AUC at 672 h (µg·h/mL)
Return type: number; implicit unit µg·h/mL.

Task: So what's the measured AUC at 672 h for this one? "Cc1nc(-c2nnn(C)c2COC(=O)N(C)CC2CCC2)ccc1O[C@H]1CCC[C@H](C(=O)O)C1"
Output: 962

* * *

Hi! I'm sharing some IC50 results obtained with Phosphatidylcholine translocator ABCB4 (Homo sapiens).
Sequence (P21439 whole entry): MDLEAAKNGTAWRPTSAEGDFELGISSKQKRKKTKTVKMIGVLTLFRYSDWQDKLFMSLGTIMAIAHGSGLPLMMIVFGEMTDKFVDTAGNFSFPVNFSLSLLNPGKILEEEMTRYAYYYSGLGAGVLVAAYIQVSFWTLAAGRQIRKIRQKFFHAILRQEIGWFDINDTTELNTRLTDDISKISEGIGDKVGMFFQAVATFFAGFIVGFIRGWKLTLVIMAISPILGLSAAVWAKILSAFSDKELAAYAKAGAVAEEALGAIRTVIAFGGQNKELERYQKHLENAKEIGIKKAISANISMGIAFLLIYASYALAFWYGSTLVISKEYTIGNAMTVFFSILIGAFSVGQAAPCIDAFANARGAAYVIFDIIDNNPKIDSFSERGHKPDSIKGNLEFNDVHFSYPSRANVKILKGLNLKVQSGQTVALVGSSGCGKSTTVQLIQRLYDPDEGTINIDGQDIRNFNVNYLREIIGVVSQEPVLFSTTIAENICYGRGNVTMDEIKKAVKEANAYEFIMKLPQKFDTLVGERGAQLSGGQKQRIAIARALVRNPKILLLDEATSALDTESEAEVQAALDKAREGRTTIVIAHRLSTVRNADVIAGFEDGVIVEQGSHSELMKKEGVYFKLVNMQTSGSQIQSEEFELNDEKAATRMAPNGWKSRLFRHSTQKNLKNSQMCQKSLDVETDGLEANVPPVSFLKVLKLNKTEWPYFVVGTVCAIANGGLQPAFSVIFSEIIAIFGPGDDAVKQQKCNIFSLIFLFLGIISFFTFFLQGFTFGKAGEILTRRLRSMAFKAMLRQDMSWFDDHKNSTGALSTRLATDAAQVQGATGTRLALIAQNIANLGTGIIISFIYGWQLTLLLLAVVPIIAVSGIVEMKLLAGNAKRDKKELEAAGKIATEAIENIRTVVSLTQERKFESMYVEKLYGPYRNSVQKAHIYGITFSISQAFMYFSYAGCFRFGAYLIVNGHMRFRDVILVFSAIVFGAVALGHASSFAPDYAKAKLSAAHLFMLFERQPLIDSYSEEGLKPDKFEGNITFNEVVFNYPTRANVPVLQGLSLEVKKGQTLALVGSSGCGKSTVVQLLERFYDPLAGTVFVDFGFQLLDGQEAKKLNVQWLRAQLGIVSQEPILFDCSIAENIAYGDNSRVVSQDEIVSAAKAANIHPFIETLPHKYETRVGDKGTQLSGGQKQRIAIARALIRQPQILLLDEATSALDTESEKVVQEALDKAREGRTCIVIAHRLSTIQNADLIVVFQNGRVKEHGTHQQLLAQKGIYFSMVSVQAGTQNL

1. CCCN(C)C(=O)OCc1c(-c2ccc(O[C@H]3CCC[C@H](C(=O)O)C3)c(C)n2)nnn1C = > 100 µM

Okay, next one:
Task: Hello, I am looking for reported IC50 with Phosphatidylcholine translocator ABCB4 (Homo sapiens) for "Cc1noc(-c2ccc(-c3ccc(C4(C(=O)O)CC4)cc3)cc2)c1NC(=O)O[C@H](C)c1ccccc1" . Could you help?
Output: 7.5 µM

* * *

- Test description: Half life in human liver microsomes at 10 uM measured after 120 mins
- Type: ADME, Microsome
Assay endpoint: half-life at 10 µM

1. Cc1nc(-c2nnn(C)c2COC(=O)N(C)CC2CCC2)ccc1O[C@H]1CCC[C@H](C(=O)O)C1 = > 2 h
2. Cc1noc(-c2ccc(-c3ccc(C4(C(=O)O)CC4)cc3)cc2)c1NC(=O)O[C@H](C)c1ccccc1 [BMS-986020] = 1.38 h

Task: So what's the measured half-life at 10 µM for this one? CCCN(C)C(=O)OCc1c(-c2ccc(O[C@H]3CCC[C@H](C(=O)O)C3)c(C)n2)nnn1C [ADMILPARANT]
Output: > 2 h

* * *

- Test description: Volume of distribution at steady state in cynomolgus monkey at 3 mg/kg, po or 1 mg/kg, iv measured up to 24 hrs by LC-MS/MS analysis
- Format: ADME, organism-based, Macaca fascicularis
- Protocol conditions: in vivo, read-out: Vdss
Assay endpoint: Vd (L/kg)
Return type: number; implicit unit L/kg.

1) Cc1nc(-c2nnn(C)c2COC(=O)N(C)CC2CCC2)ccc1O[C@H]1CCC[C@H](C(=O)O)C1 = 6.3

Task: So what's the measured Vd for this one? "CCCN(C)C(=O)OCc1c(-c2ccc(O[C@H]3CCC[C@H](C(=O)O)C3)c(C)n2)nnn1C"
Output: 1.6
